Values from PubChem BioAssay (NCI)

Assay: NCI Yeast Anticancer Drug Screen. Data for the rad52 strain (AID 147);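 further: 0% = growth of vehicle-treated control cultures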
Settings: S. cerevisiae rad52 mutant growth inhibition; at 3.7 µM; stronger effect = higher value
The panel holds about 79,000 compounds, 15% with a hit somewhere; the sample as a whole holds those more often.
Reported Endpoint: growth inhibition (%)
I only need the number, in %, no unit after it.

growth inhibition lookup needed for O=C1CC(C(O)(C(F)(F)F)C(F)(F)Cl)CCC1C(O)(C(F)(F)F)C(F)(F)Cl (configuration not stated) , thanks.
46

growth inhibition lookup needed for CCOC(=O)/C(=C/c1cccc(Cl)c1)N(CC)CC , thanks.
13

growth inhibition lookup needed for O=C(O)C(=Cc1ccc(-c2ccccc2)cc1)C(=O)O , thanks.
10

growth inhibition lookup needed for c1ccc2nc3c(nc2c1)sc1ccccc13 , thanks.
74

growth inhibition lookup needed for CCCCCCNCCCNc1c2cc(OC)ccc2nc2cccc([N+](=O)[O-])c12 , thanks.
25

growth inhibition lookup needed for CCC(/C=C/c1ccccc1)=N\Nc1ccc(Cl)cc1 , thanks.
2

growth inhibition lookup needed for CCOP(=O)(OCC)/C(C#N)=C/c1ccc(-c2ccc(F)cc2F)o1 , thanks.
4

growth inhibition lookup needed for O=C1C=C(NCCc2cc(Br)c(O)c(Br)c2)C(=O)c2ncccc21 , thanks.
50

growth inhibition lookup needed for CC(C)C(c1ccccc1)c1ccccc1 , thanks.
9

growth inhibition lookup needed for CCc1c(Cl)c(C)c(Cl)c(O)c1Cl , thanks.
-30

growth inhibition lookup needed for S=C(NCc1ccccn1)N/N=C/c1ccccn1 , thanks.
99

growth inhibition lookup needed for CCS(=O)(=O)Nc1ccc(Nc2c3ccccc3nc3ccccc23)c(OC)c1 , thanks.
82
